- experiment.notes: Probe fluorescence ratio response to arachidonic acid relative to ADIFAB2
- Assay type: binding
- test.settings: arachidonic acid; response relative to ADIFAB2
measurement.type: DR/DR AA

molecule: 55V 73F 72A (protein, listed as Rattus norvegicus, PEPTIDE (1)...(131) wild-type rat intestinal fatty acid binding protein) AFDGTWKVDRNENYEKFMEKMGINVVKRKLGAHDNLKLTITQEGNKFTVKESSNVRNIDVVFELGVDFAYSAFDGTELTGTWTMEGNKLVGKFKRVDNGKELIAVREISGNELIQTYTYEGVEAKRIFKKE
measurement.type: DR/DR AA
quantitative.result: 0.864
//
molecule: 62Y, 72A (protein, listed as Rattus norvegicus, PEPTIDE (1)...(131) wild-type rat intestinal fatty acid binding protein) AFDGTWKVDRNENYEKFMEKMGINVVKRKLGAHDNLKLTITQEGNKFTVKESSNFRNIDVVYELGVDFAYSAADGTELTGTWTMEGNKLVGKFKRVDNGKELIAVREISGNELIQTYTYEGVEAKRIFKKE
measurement.type: DR/DR AA
quantitative.result: 1.598
//
molecule: 18I 31L 72A (protein, listed as Rattus norvegicus, PEPTIDE (1)...(131) wild-type rat intestinal fatty acid binding protein) AFDGTWKVDRNENYEKFIEKMGINVVKRKLLAHDNLKLTITQEGNKFTVKESSNFRNIDVVFELGVDFAYSAADGTELTGTWTMEGNKLVGKFKRVDNGKELIAVREISGNELIQTYTYEGVEAKRIFKKE
measurement.type: DR/DR AA
quantitative.result: 1.054
